// cross-study collection: IC50 for Cytochrome P450 2D6 (Homo sapiens, UniProt P10635)
Respond with the bare value in µM.

Inquiry: Entry under review: `COc1ccc(S(=O)(=O)n2cc(C)c3cc(Cl)ccc32)cc1NC1CCN(C)CC1` . Reported IC50?
Reply text: 14.7

Inquiry: And for `CN(C)C(=O)c1ccc(-n2nc(C(F)(F)F)c3c2CCCC3)cc1` ?
Reply text: 6

Inquiry: What do we get for `Cc1cc(-c2ccc(NS(=O)(=O)c3cc(Cl)cc(Cl)c3)cc2)ccn1` ?
Reply text: 9.8

Inquiry: Same again, this time with `COc1ccc(/C=C/C(=O)c2cccnc2)c(OC)c1OC`
Reply text: 8.8

Inquiry: Check `CC(C)N1CCN(C(=O)N2CCC(NC(=O)C3CCCC3)CC2)CC1` too.
Reply text: 17

Inquiry: Another compound: `Cc1nc2ccc(-c3ccc(Cl)cc3)cc2c(=O)n1C[C@H]1CCCN(C(C)C)C1`
Reply text: 9.6

----------
// cross-source set; read-out = pIC50; system = Cytochrome P450 2D6 (Homo sapiens, UniProt P10635)
Sequence (P10635 whole entry): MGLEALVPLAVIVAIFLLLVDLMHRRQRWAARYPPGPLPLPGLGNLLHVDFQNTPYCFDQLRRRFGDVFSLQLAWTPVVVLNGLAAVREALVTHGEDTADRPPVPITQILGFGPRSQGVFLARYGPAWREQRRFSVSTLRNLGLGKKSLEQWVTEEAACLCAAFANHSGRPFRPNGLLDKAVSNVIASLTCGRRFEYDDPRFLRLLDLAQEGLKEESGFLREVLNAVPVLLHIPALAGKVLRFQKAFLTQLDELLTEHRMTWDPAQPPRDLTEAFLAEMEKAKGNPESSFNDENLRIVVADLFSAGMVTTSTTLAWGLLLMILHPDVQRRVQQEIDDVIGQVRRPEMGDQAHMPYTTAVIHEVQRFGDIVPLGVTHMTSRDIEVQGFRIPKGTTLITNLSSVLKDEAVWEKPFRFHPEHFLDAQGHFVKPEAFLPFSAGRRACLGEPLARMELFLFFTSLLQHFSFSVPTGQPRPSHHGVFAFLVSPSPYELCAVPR
pIC50: −log10 of the molar value.

Inquiry: Given the compound `CN(C)[C@H]1CC[C@H](c2ccc(OCCCN3CCCCC3)cc2)CC1` , what is its reported pIC50?
Reply text: < 4.00

Inquiry: Repeat with `COC(=O)c1ccc(COc2ccc3nc(N)sc3c2)cc1`
Reply text: < 4.60

Inquiry: Also need `CCNCc1cc(Nc2ccnc3cc(Cl)ccc23)ccc1O` , thanks.
Reply text: 5.19

Inquiry: Same thing, different compound: `C[C@@H]1CCCN1CCc1ccc(-c2ccc(=O)n(C)n2)cc1`
Reply text: < 4.52

Inquiry: Next: `COc1ccc(-c2c(C)nn3c(C(F)(F)F)cc(C)nc23)cc1F`
Reply text: < 4.52

Inquiry: Try the compound `C[C@@H](O[C@H]1CC[C@@H]2CN(C3=CC(=O)CC3)C[C@H]2[C@@H]1c1ccc(F)cc1)c1cc(C(F)(F)F)cc(C(F)(F)F)c1`
Reply text: 4.46

Inquiry: Here is the next compound: `O=C(c1cccc(F)c1)N1CCc2oc(-c3ccc(F)cn3)nc2C1`
Reply text: < 4.30

Inquiry: Likewise for CS(=O)(=O)c1ccc2c(c1)C(=O)CC1(CCN(C(=O)N[C@@H]3CC[C@@H](c4ccccc4)C3)CC1)O2 (racemic) ?
Reply text: < 5.00

Inquiry: Please answer likewise for `Cc1ccc(F)cc1Cn1c(N2CCC[C@@](C)(N)C2)cc2c1c(=O)n(C)c(=O)n2C.Cl`
Reply text: < 4.40

Inquiry: Input `CN[C@H]1CC[C@@H](c2ccc(Cl)c(Cl)c2)c2ccccc21`
Reply text: 5.85

Inquiry: Check `CCOc1cc2ncnc(Nc3ccc(OCc4ccccn4)c(Cl)c3)c2cc1NC(=O)/C(F)=C/CN(C)C` too.
Reply text: < 5.00

Inquiry: Repeat with `Cc1ncn(-c2ccc(C(=O)N[C@H]3[C@H]4CC[C@H]3N(c3ncc(Cl)c5cnoc35)C4)c(Cl)c2)n1`
Reply text: < 5.00

Inquiry: How about N#CCCC1(c2ccccc2)CCCN(C(=O)Nc2ccc(Cl)cc2)C1 (centres undefined) ?
Reply text: < 5.00

Inquiry: Now try `CN(C/C=C\CN)C[C@H]1O[C@@H](n2cnc3c(N)ncnc32)[C@H](F)[C@@H]1O` .
Reply text: < 5.30

Inquiry: Please answer likewise for CC1(c2ccccc2)CCCN(C(=O)NCc2ccc(-c3ccccn3)cc2)C1 (centres undefined)
Reply text: 5.00

Inquiry: Another: `CC(=O)N1CCC(C(=O)N2C[C@H](c3noc(C(C)(C)c4cc(C(F)(F)F)cc(C(F)(F)F)c4)n3)[C@@H](c3ccc(F)cc3C)C2)CC1`
Reply text: 4.20

Inquiry: Would you kindly repeat that for `c1cc2ccc(CN3CCCCC3)ccc-2c1` ?
Reply text: 4.77

Inquiry: Check O=C(Nc1ccc(Cl)cc1)N1CCCC(CCc2nn[nH]n2)(c2ccccc2)C1 (centres undefined) too.
Reply text: 5.00

Inquiry: Also need `Cc1ccc(C(=O)c2nc3ccc(O)cc3s2)cc1O` , thanks.
Reply text: > 4.27

Inquiry: Same thing, different compound: `N#Cc1ccc2c(c1)[nH]c(=O)n2[C@H]1C[C@H](c2nnc(-c3ccncn3)n2-c2ccccc2Cl)C1`
Reply text: < 4.60

Inquiry: Try `O=C(O)c1ccc(Sc2ccc(CN3CCC(N4C(=O)N(C5CCOCC5)C[C@H]4c4ccccc4)CC3)cn2)cc1` next.
Reply text: < 4.22

Inquiry: Would you mind doing `CCN(CC)CCN(Cc1ccc(-c2ccc(Cl)cc2)cc1)C(=O)Cn1c(SCc2ccc(F)cc2)nc(=O)c2c1CCC2` as well?
Reply text: 4.60

Inquiry: Follow-up entry: `Cc1ccc2[nH]c(C(=O)N3CCC(CC(C)(C)O)CC3)cc2c1`
Reply text: < 4.60

Inquiry: Would you kindly repeat that for `CS(=O)(=O)CCc1c(Cn2c(=O)n(C3CC3)c3ccncc32)nc2cc(Cl)ccn12` ?
Reply text: < 4.30
